Source: patent US5409933A

The compounds listed here are annotated with their MIC.
Test system: Escherichia coli DC2
Experiment: In Vitro Anti-Bacterial Activity Test (MIC, agar dilution)
Type: cell-based
Conditions: Escherichia coli, DC2, 18 h
Description: The above in vitro antibacterial activity test was carried out in accordance with the agar culture medium dilution method (Hoechst 345) by using Muller-Hinton agar medium to determine the minimum inhibitory concentration (MIC). The strains having 10^7 C.F.U./ml were inoculated on the culture medium, and the growth of the strains was observed after incubating them at 37° C. for 18 hours, in which ciprofloxacin was used as a control antibacterial agent. […]
Structures can show the parent of a compound that is named as a salt.
quantityName: MIC (mg/L)

NC1CCN(c2c(F)cc3c(=O)c(C(=O)C[N+](=O)[O-])cn(CCF)c3c2F)C1 (stereo not shown) [Example 31, hydrochloride] | 0.391
NC1CCN(c2c(F)cc3c(=O)c(C(=O)C[N+](=O)[O-])cn(C4CC4)c3c2Cl)C1 (stereo not shown) [Example 11, hydrochloride] | 0.013
CCOC(=O)C(C(=O)OCC)C(=O)c1cn(C2CC2)c2c(OC)c(N3CCC(NC)C3)c(F)cc2c1=O (stereo not shown) [Example 60, hydrochloride] | 0.098
CCOC(=O)CC(=O)c1cn(C2CC2)c2c(Cl)c(N3CCC(N)C3)c(F)cc2c1=O (stereo not shown) [Example 25, hydrochloride] | 0.025
CCOC(=O)C(C(=O)OCC)C(=O)c1cn(C2CC2)c2c(Cl)c(N3CCC(NC)C3)c(F)cc2c1=O (stereo not shown) [Example 57, hydrochloride] | 0.025
CS(=O)(=O)CC(=O)c1cn(C2CC2)c2c(Cl)c(N3CCC(N)C3)c(F)cc2c1=O (stereo not shown) [Example 33, hydrochloride] | 0.098
CCOC(=O)CC(=O)c1cn(C2CC2)c2c(Cl)c(N3CC[C@@H](N)C3)c(F)cc2c1=O [Example 26, hydrochloride] | 0.098

====

Test system: Staphylococcus aureus 285
Assay: In Vitro Anti-Bacterial Activity Test (MIC, agar dilution)
Type: cell-based
Settings: Staphylococcus aureus, 285, 18 h, Staphylococcus aureus 285; Muller-Hinton agar, 37° C., 18 hours; read-out: MIC
Counter-ions that a name gives are not always drawn.
quantityName: MIC (µg/mL)

NC1CCN(c2cc3c(cc2F)c(=O)c(C(=O)C[N+](=O)[O-])cn3-c2ccc(F)cc2F)C1 (stereo not drawn) [Example 9, hydrochloride] | 0.025
CC(=O)CC(=O)c1cn(C2CC2)c2c(Cl)c(N3CCC(N)C3)c(F)cc2c1=O (stereo not drawn) [Example 37, hydrochloride] | 0.781
CN[C@H]1CCN(c2c(F)cc3c(=O)c(C(=O)C[N+](=O)[O-])cn(C4CC4)c3c2Cl)C1 [Example 62, hydrochloride] | 0.025
Cc1c(F)c(N2CCNC(C)C2)cc2c1c(=O)c(C(=O)C[N+](=O)[O-])cn2C1CC1 (stereo not drawn) [Example 51, hydrochloride] | 0.098
CC1CN(c2c(F)cc3c(=O)c(C(=O)C[N+](=O)[O-])cn(C4CC4)c3c2F)CCN1 (stereo not drawn) [Example 7, hydrochloride] | 0.391
CNC1CCN(c2c(F)cc3c(=O)c(C(=O)C[N+](=O)[O-])cn(C4CC4)c3c2Cl)C1 (stereo not drawn) [Example 63, hydrochloride] | 0.049
CCOC(=O)C(C#N)C(=O)c1cn(C2CC2)c2c(Cl)c(N3CCC(N)C3)c(F)cc2c1=O (stereo not drawn) [Example 39, hydrochloride] | 1.56
CNCC1=CCN(c2c(F)cc3c(=O)c(C(=O)C[N+](=O)[O-])cn(C4CC4)c3c2F)C1 [Example 15, hydrochloride] | 0.004
CCOC(=O)C(C(=O)OCC)C(=O)c1cn(C2CC2)c2c(Cl)c(N3CCC(N)C3)c(F)cc2c1=O (stereo not drawn) [Example 22, hydrochloride] | 0.098
CCOC(=O)CC(=O)c1cn(C2CC2)c2c(Cl)c(N3CC[C@H](N)C3)c(F)cc2c1=O [Example 27, hydrochloride] | 0.049
CNCC1=CCN(c2c(F)cc3c(=O)c(C(=O)CC#N)cn(C4CC4)c3c2Cl)C1 [Example 43, hydrochloride] | 3.12
CCOC(=O)CC(=O)c1cn(C2CC2)c2c(F)c(N3CCC(N)C3)c(F)cc2c1=O (stereo not drawn) [Example 21, hydrochloride] | 0.049
CS(=O)(=O)CC(=O)c1cn(C2CC2)c2c(Cl)c(N3CCC(N)C3)c(F)cc2c1=O (stereo not drawn) [Example 33, hydrochloride] | 1.56
N[C@H]1CCN(c2c(F)cc3c(=O)c(C(=O)C[N+](=O)[O-])cn(C4CC4)c3c2Cl)C1 [Example 13, hydrochloride] | 0.025
CCOC(=O)C(C(=O)OCC)C(=O)c1cn(C2CC2)c2c(OC)c(N3CCC(NC)C3)c(F)cc2c1=O (stereo not drawn) [Example 60, hydrochloride] | 0.195
